# Target Or Test System: ERα (Homo sapiens, UniProt P03372)
# Sequence (P03372 whole entry): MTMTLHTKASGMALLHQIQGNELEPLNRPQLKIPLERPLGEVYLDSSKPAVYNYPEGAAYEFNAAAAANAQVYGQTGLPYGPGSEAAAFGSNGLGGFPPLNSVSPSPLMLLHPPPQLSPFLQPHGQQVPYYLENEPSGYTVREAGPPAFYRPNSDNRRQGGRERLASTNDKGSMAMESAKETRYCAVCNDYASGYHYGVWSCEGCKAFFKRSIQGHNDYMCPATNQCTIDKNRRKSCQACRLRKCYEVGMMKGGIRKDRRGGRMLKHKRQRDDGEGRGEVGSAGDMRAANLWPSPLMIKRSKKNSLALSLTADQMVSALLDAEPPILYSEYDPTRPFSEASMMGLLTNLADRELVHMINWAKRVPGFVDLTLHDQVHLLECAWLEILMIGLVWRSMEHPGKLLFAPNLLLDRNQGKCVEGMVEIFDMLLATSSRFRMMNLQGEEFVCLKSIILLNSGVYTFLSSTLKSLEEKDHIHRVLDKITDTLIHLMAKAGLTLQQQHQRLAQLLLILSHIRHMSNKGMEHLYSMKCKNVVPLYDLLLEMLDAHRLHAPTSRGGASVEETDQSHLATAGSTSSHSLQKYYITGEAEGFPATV
# Experimental Details: Degradation of ERα in T-47D cells (immunoblotting, 4 h)
# Assay type: cell-based
# Parameters: host or cells: T-47D
# Assay Context: 10nM compound
Field: Degradation rate (%) of ERα in T-47D cells. Provide a value for each of the molecules that follow.
Give bare numbers, in %.

Worked examples, 4 molecules total:
{"Molecule": "O=C1CCC(N2Cc3c(ccc4c3OCC43CCN(CC(=O)N4CCC5(CCN(c6ccc([C@@H]7c8ccc(O)cc8CC[C@@H]7c7ccccc7)cc6)C5)C4)CC3)C2=O)C(=O)N1 (some centres unmarked)", "Units Symbol": "%", "Numeric Readout": 55}
{"Molecule": "CC1CN(C2CCN(c3ccc([C@@H]4c5ccc(O)cc5CC[C@@H]4c4ccccc4)cc3)CC2)CCC1N1CCC2(CC1)COc1c2ccc2c1CN(C1CCC(=O)NC1=O)C2=O (some centres unmarked)", "Units Symbol": "%", "Numeric Readout": 56}
{"Molecule": "O=C1CCC(N2Cc3c(ccc4c3OCC43CCN(CCNC(=O)C4CCC5(CC4)CCN(c4ccc([C@@H]6c7ccc(O)cc7CC[C@@H]6c6ccccc6)cc4)CC5)CC3)C2=O)C(=O)N1 (some centres unmarked)", "Units Symbol": "%", "Numeric Readout": 73}
{"Molecule": "O=C1CCC(N2Cc3cc4c(cc3C2=O)CCC2(CN(C3CCC5(CC3)CN(c3ccc([C@@H]6c7ccc(O)cc7CC[C@@H]6c6ccccc6)cc3)C5)C2)O4)C(=O)N1 (some centres unmarked)", "Units Symbol": "%", "Numeric Readout": 46}

From here, focus on the item given below.
Requested field: Degradation rate (%) of ERα in T-47D cells. Item: O=C1CCC(N2C(=O)c3cc4c(cc3C2=O)OC2(CC4)CN(C3CC4(CCN(c5ccc([C@@H]6c7ccc(O)cc7CC[C@@H]6c6ccccc6)cc5)CC4)C3)C2)C(=O)N1 (some centres unmarked)
54
